// provenance: PubChem BioAssay (NCI)

Each item that follows carries a reported growth inhibition.
- assay-protocol: NCI Yeast Anticancer Drug Screen. Data for the bub3 strain (AID 167)
- measurement-conditions: S. cerevisiae bub3 mutant strain, at 5.0 µM (retest, dose inferred, filed as 0.5), active compounds read high
This is part of a sample that, as a whole, favours compounds with a hit. Of some 79,000 tested, about 15% had one in any assay. Activity calls are given as the source filed them. No stated cut-off is given here; in the data, active means growth inhibition above about 70%; inactive means the rest.

compound | measured-property | result-value
C/C(=N\N=C(N)N)C(CN1CCOCC1)C(c1ccccc1)c1c(O)c2ccccc2oc1=O (stereo not given) | growth inhibition | 31% (inactive)
c1cc2c(c(NC3=NCCN3)c1)CCCC2 | growth inhibition | -26% (inactive)
CCC[CH2][Sn]1([CH2]CCC)[O]CC(CN2CCCC2)[O]1 (stereo not given) | growth inhibition | 36% (inactive)
C[N-]c1nnnn1C.[Au+].c1ccc([PH+](c2ccccc2)c2ccccc2)cc1 | growth inhibition | 98% (active)

Now look at this one.
For the compound shown here, CCCCN(C)CC(C(C)=O)C(c1ccccc1)c1c(O)c2ccccc2oc1=O (stereo not given) , give the reported growth inhibition.
15% (inactive)

====

- assay-protocol: NCI Yeast Anticancer Drug Screen. Data for the wt2 strain (AID 169);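 further: 0% = growth of vehicle-treated yeast cultures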
- measurement-conditions: S. cerevisiae wt2 strain growth inhibition; at 33.0 µM
About 79,000 compounds went through this panel and 15% of them were active in at least one assay; those are over-represented in the sample as a whole. The source made the active and inactive calls. Cut-off read from the data, not from the text of the source: active = growth inhibition above about 70%; inactive = the rest.
Answer with one of the outcomes active, inactive

The examples below pair each entry with its known result.
compound | qualitative-label
Cn1cc(NC(=O)c2cc(NC(=O)CN=C(N)N)cn2C)cc1C(=O)NCCC(=N)N | active
C=CC[N+]12CN3CN(CN(C3)C1)C2 | inactive
COC(=O)C(F)C(Br)C(=O)OC (stereo unspecified) | active

Dear colleague, could you share the recorded outcome for CCOC(=O)C1C2c3ccccc3C(c3ccccc32)C1C(=O)OCC (stereo unspecified) when you have a moment?
inactive

Dear colleague, could you share the recorded outcome for O=C1c2ccccc2C(=O)C(Cl)C1Cl (stereo unspecified) when you have a moment?
active

Dear colleague, could you share the recorded outcome for O=S(=O)(O)c1ccc(Cl)cc1.[Cd] when you have a moment?
inactive

Dear colleague, could you share the recorded outcome for C/C(=N\N=C(N)N)C(CN1CCOCC1)C(c1ccccc1)c1c(O)c2ccccc2oc1=O (stereo unspecified) when you have a moment?
inactive

Dear colleague, could you share the recorded outcome for O=c1oc2ccccc2c(O)c1C(c1ccc2c(c1)Cc1ccccc1-2)c1c(O)c2ccccc2oc1=O when you have a moment?
active

Dear colleague, could you share the recorded outcome for CC(C)(C)c1cc([N+](=O)[O-])cc([N+](=O)[O-])c1O when you have a moment?
inactive

Dear colleague, could you share the recorded outcome for Nc1ccc(Cl)cc1C(=O)c1ccccc1 when you have a moment?
inactive

Dear colleague, could you share the recorded outcome for CC1=C(O)C(=O)C=C2C1=CC=C1[C@@]2(C)CCC2(C)[C@@H]3C[C@@H](C)C(=O)C[C@]3(C)CC[C@]12C (stereo partly specified) when you have a moment?
active

====

- assay-protocol: NCI Yeast Anticancer Drug Screen. Data for the mlh1 rad18 strain (AID 175)
- measurement-conditions: S. cerevisiae mlh1 rad18 strain growth inhibition; at 50.0 µM (retest, dose inferred, filed as 5.0); active compounds read high
About 79,000 compounds went through this panel and 15% of them were active in at least one assay; those are over-represented in the sample as a whole.
measured-property: growth inhibition (%)
Entry rule: numbers only, all in %.

compound | unit | result-value
CC12CCC(C1)C(C)(C)C2OC(=O)c1ccccc1N (stereo unspecified) | % | 82
CCC[CH2][Sn]1([CH2]CCC)[O]CC(CN2CCCC2)[O]1 (stereo unspecified) | % | 97
COc1cc2c(cc1OC)C13CCN4CC5=CCOC6CC(=O)N2C1C6C5CC43 (stereo unspecified) (tested in a mixture with another compound) | % | -4
CCOP(=O)(OCC)/C(C#N)=C/c1cccc(C)c1 | % | 56
COC1CC(CC2CCC(C)C(C(C)C(=O)O)O2)OC2(OC(C)(C3CCC(C)(C4OC(C5OC(O)(CO)C(C)CC5C)CC4C)O3)CC2C)C1C (stereo unspecified) | % | 96

For the compound shown here, CCC[CH2][Sn]1([CH2]CCC)[O]C(=O)c2cc(C)ccc2[O]1 , give the reported growth inhibition.
98

For the compound shown here, N#CN(Cc1ccccc1)C(c1ccccc1)(c1ccccc1)c1ccccc1.[Cl][Sn]([c]1ccccc1)([c]1ccccc1)[c]1ccccc1 , give the reported growth inhibition.
88

For the compound shown here, Cc1ccc2c(c1N)C(=O)c1ccccc1C2=O , give the reported growth inhibition.
45

For the compound shown here, C[N+](CCCl)(CCCl)Cc1cccc2cccc([N+](=O)[O-])c12 , give the reported growth inhibition.
81

For the compound shown here, C=C(CC(=O)O)C(=O)O (tested in a mixture with another compound) , give the reported growth inhibition.
-1

For the compound shown here, CCC[CH2][Sn]1([CH2]CCC)[O]CC(c2ccccn2)C[O]1 , give the reported growth inhibition.
98

For the compound shown here, COC(=O)C(CCCN=C(N)N[N+](=O)[O-])NC(=O)c1ccc2c(c1O)C(=O)c1ccccc1C2=O (stereo unspecified) , give the reported growth inhibition.
20

For the compound shown here, O=C(O)C1C2CCC(C2)C1c1ccccc1 (stereo unspecified) , give the reported growth inhibition.
6

====

- assay-protocol: NCI Yeast Anticancer Drug Screen. Data for the rad50 strain (AID 155);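 further: 0% = growth of vehicle-only cultures of the same strain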
- measurement-conditions: S. cerevisiae rad50 strain growth inhibition; at 11.0 µM; active compounds read high
About 79,000 compounds went through this panel and 15% of them were active in at least one assay; those are over-represented in the sample as a whole.
measured-property: growth inhibition (%)
Entry rule: numbers only, all in %.

# example entries with known answers
molecule | result-value
O=Cc1ccc(C(F)(F)F)cc1.[C-]#[O+].[C-]#[O+].[C-]#[O+].[Cr] | 23
CC(C)CC(NC(=O)C(N)C(C)C)C(=O)NC(CCCCN)C(=O)Nc1ccc(N(CCCl)CCCl)cc1 (stereo not given) | 8
CC[C@@]1(O)C(=O)OCc2c1cc1n(c2=O)Cc2cc3ccccc3nc2-1 | 96
c1ccc(N=c2nc(N3CCOCC3)ss2)cc1 | 51
O=c1oc2ccccc2c(O)c1C(c1ccc2ccccc2c1)c1c(O)c2ccccc2oc1=O | 17
CC1(C)N=C(N)N=C(N)N1c1cccc(N)c1.[Sn] | 6
CCC1(OC(=O)CN)C(=O)OCc2c1cc1n(c2=O)Cc2cc3ccccc3nc2-1 (stereo not given) | 97
CC(C)(C)c1cc([N+](=O)[O-])cc([N+](=O)[O-])c1O | -5
S=C1NC2(CCCCC2)NC12CCCCC2 | 19
COC1C(O)C(C)OC(OC2C(Oc3cccc4c(O)c5c(=O)oc6ccc(C)c7c(=O)oc(c34)c5c67)OC(C)C(O)C2O)C1O (stereo not given) | 83

For the molecule shown here, C/C(CCl)=N/NC1=NC(c2ccccc2Cl)P(=O)(NCCCNP2(=O)SC(N/N=C(/C)CCl)=NC2c2ccccc2Cl)S1 (stereo not given) , give the reported growth inhibition.
23

For the molecule shown here, Nc1nc(N)c2c(Cl)c(CNc3ccc(C(=O)NC(CC(=O)O)C(=O)O)cc3)ccc2n1 (stereo not given) , give the reported growth inhibition.
14

====

- assay-protocol: NCI Yeast Anticancer Drug Screen. Data for the rad50EPP+ strain (AID 151);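 further: 0% = growth of vehicle-treated control cultures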
- measurement-conditions: S. cerevisiae rad50 mutant strain, at 100.0 µM, active compounds read high
About 79,000 compounds went through this panel and 15% of them were active in at least one assay; those are over-represented in the sample as a whole.
measured-property: growth inhibition (%)
Entry rule: numbers only, all in %.

# example entries with known answers
molecule | growth inhibition (%)
c1ccc(N=c2nc(N3CCOCC3)ss2)cc1 | 99
O=[N+]([O-])c1ccc(N2CCC(CCCC3CCN(c4ccc([N+](=O)[O-])cc4[N+](=O)[O-])CC3)CC2)c([N+](=O)[O-])c1 | 18

For the molecule shown here, Cn1cnc(N)c1C(=N)[Se] , give the reported growth inhibition.
95

For the molecule shown here, COC(=O)C1c2cc3c(c(O)c2C(O)CC1(C)O)C(=O)c1c(O)cc2c(c1C3=O)OC1OC2(C)C(O)C(N(C)C)C1O (stereo not given) , give the reported growth inhibition.
65

For the molecule shown here, COc1cc(O)c2c(O)c3c(c4c2c1[C@]1(C4)C(C)=CCCC1(C)C)[C@H](O)[C@@]1(O)CC(=O)C(C(N)=O)=C(O)[C@@]1(O)C3=O , give the reported growth inhibition.
89

====

- assay-protocol: NCI Yeast Anticancer Drug Screen. Data for the bub3 strain (AID 167)
- measurement-conditions: S. cerevisiae bub3 mutant strain, at 5.0 µM (retest, dose inferred, filed as 0.5), active compounds read high
This is part of a sample that, as a whole, favours compounds with a hit. Of some 79,000 tested, about 15% had one in any assay.
Entry flag: criterion met if growth inhibition reaches 40%; criterion not met if it does not.

The examples below pair each entry with its known result.
molecule | qualitative-label
c1ccc([Te][Te]c2ccccc2)cc1 | criterion met
CCCCS.[Hg] | criterion met
O=c1c2ccccc2[se]n1-c1ccccc1 | criterion not met
O=c1oc2ccccc2c(O)c1C(c1ccc(OCc2ccccc2)cc1)c1c(O)c2ccccc2oc1=O | criterion not met
CC(C)c1c(O)c(O)c2c(c1O)C(=O)C(O)=C1C(C)(C)CCC[C@@]12C | criterion met

Dear colleague, could you confirm whether COc1cc(C=Nc2ccc(-c3csc(COc4ccccc4)n3)cc2)ccc1N(CCCl)CCCl has growth inhibition at or above 40%?
criterion not met

Dear colleague, could you confirm whether FC(F)(F)C1(C(F)(F)F)O[Te]2(OC1(C(F)(F)F)C(F)(F)F)OC(C(F)(F)F)(C(F)(F)F)C(C(F)(F)F)(C(F)(F)F)O2 has growth inhibition at or above 40%?
criterion not met

Dear colleague, could you confirm whether ClCCN(CCCl)c1ccc(C2N(Cc3ccc(N(CCCl)CCCl)cc3Cl)CCCN2Cc2ccc(N(CCCl)CCCl)cc2Cl)cc1 has growth inhibition at or above 40%?
criterion not met

Dear colleague, could you confirm whether CN(/N=C/c1ccc(Cl)cc1)P(=O)(N1CC1)N1CC1 has growth inhibition at or above 40%?
criterion not met

Dear colleague, could you confirm whether CCC(C)N1CN(c2ccccc2)C2(CCN(CC3COc4ccccc4O3)CC2)C1=O (configuration not stated) has growth inhibition at or above 40%?
criterion not met

Dear colleague, could you confirm whether C[C@]12CC[C@H]3[C@@H](C[C@@H](F)C4=CC(=O)CC[C@@]43C)[C@@H]1CC[C@@H]2O has growth inhibition at or above 40%?
criterion not met

Dear colleague, could you confirm whether CC(=O)C1CCC2C3CCC4CC([N+]5(C)CCCCC5)CCC4(C)C3CCC12C (configuration not stated) has growth inhibition at or above 40%?
criterion not met

Dear colleague, could you confirm whether [Se]C(=NCc1ccccc1)NCc1ccccc1 has growth inhibition at or above 40%?
criterion not met

Dear colleague, could you confirm whether CC(=O)OCC1OC(OC(C)C)[CH]([Hg][S]Cc2ccccc2)C(OC(C)=O)C1OC(C)=O (configuration not stated) has growth inhibition at or above 40%?
criterion met
